The reported numbers originate from ChEMBL document CHEMBL1145649.

measurement.notes: Oral bioavailability in cynomolgus monkey at 1 mg/kg
Assay type: ADME, organism-based, Macaca fascicularis
run.conditions: in vivo
readout.type: bioavailability (%)
Field format: number, assumed %, no unit text.

Input "CC(C)CCn1nc(CC2CCCC2)c(O)c(C2=NS(=O)(=O)c3cc(NS(C)(=O)=O)ccc3N2)c1=O" . Output bioavailability: 15

Input "CC(C)CCn1nc(C(C)(C)C)c(O)c(C2=NS(=O)(=O)c3cc(NS(C)(=O)=O)ccc3N2)c1=O" . Output bioavailability: 15

Input "CC(C)(C)CCn1nc(CC(C)(C)C)c(O)c(C2=NS(=O)(=O)c3cc(NS(C)(=O)=O)ccc3N2)c1=O" . Output bioavailability: 4

Input "CC(C)=Cc1nn(CCC(C)(C)C)c(=O)c(C2=NS(=O)(=O)c3cc(NS(C)(=O)=O)ccc3N2)c1O" . Output bioavailability: 2

Input "CC(C)CCn1nc(CC2CC2)c(O)c(C2=NS(=O)(=O)c3cc(NS(C)(=O)=O)ccc3N2)c1=O" . Output bioavailability: 7

Input "CC(C)(C)CCn1nc(C2CC2)c(O)c(C2=Nc3ccc(NS(C)(=O)=O)cc3S(=O)(=O)N2)c1=O" . Output bioavailability: 4

Input "CC(C)CCn1nc(CC(C)(C)C)c(O)c(C2=NS(=O)(=O)c3cc(NS(C)(=O)=O)ccc3N2)c1=O" . Output bioavailability: 6

Input "CC(C)(C)Cc1nn(CCC2CC2)c(=O)c(C2=Nc3ccc(NS(C)(=O)=O)cc3S(=O)(=O)N2)c1O" . Output bioavailability: 6

----------
measurement.notes: Volume of distribution at steady state in cynomolgus monkey at 1 mg/kg, iv
Format: ADME, organism-based, Macaca fascicularis
Design: dose 1 mg/kg, route intravenous
run.conditions: in vivo, read-out: Vdss
readout.type: Vd (L/kg)
Field format: number, assumed L/kg, no unit text.

Input "CC(C)(C)CCn1nc(CC2CCCC2)c(O)c(C2=Nc3ccc(NS(C)(=O)=O)cc3S(=O)(=O)N2)c1=O" . Output Vd: 0.57

Input "CC(C)CCn1nc(CC2CCCC2)c(O)c(C2=NS(=O)(=O)c3cc(NS(C)(=O)=O)ccc3N2)c1=O" . Output Vd: 0.15

Input "CC(C)CCn1nc(-c2cccs2)c(O)c(C2=Nc3ccc(NS(C)(=O)=O)cc3S(=O)(=O)N2)c1=O" . Output Vd: 0.18

Input "CC(C)CCn1nc(C(C)(C)C)c(O)c(C2=NS(=O)(=O)c3cc(NS(C)(=O)=O)ccc3N2)c1=O" . Output Vd: 0.17

Input "CC(C)CCn1nc(-c2cccs2)c(O)c(C2=NS(=O)(=O)c3cc(N(C)S(C)(=O)=O)ccc3N2)c1=O" . Output Vd: 0.57

Input "Cc1ccc(-c2nn(Cc3ccccc3)c(=O)c(C3=Nc4ccccc4S(=O)(=O)N3)c2O)s1" . Output Vd: 0.21

----------
measurement.notes: in vitro
run.conditions: human, Caco-2
readout.type: Papp A→B at 10 µM (×10⁻⁶ cm/s)
Field format: number, assumed ×10⁻⁶ cm/s, no unit text.

Input "CC(C)CCn1nc(C(C)(C)C)c(O)c(C2=NS(=O)(=O)c3cc(NS(C)(=O)=O)ccc3N2)c1=O" . Output Papp A→B at 10 µM: 0.58

Input "CN(c1ccc2c(c1)S(=O)(=O)N=C(c1c(O)c(-c3cccs3)nn(CCC(C)(C)C)c1=O)N2)S(C)(=O)=O" . Output Papp A→B at 10 µM: 0.01

Input "CC(C)CCn1nc(CC(C)(C)C)c(O)c(C2=NS(=O)(=O)c3cc(NS(C)(=O)=O)ccc3N2)c1=O" . Output Papp A→B at 10 µM: 0.29

Input "CS(=O)(=O)Nc1ccc2c(c1)S(=O)(=O)N=C(c1c(O)c(C3=CCCC3)nn(CCC3CC3)c1=O)N2" . Output Papp A→B at 10 µM: 0.59

Input "CC(C)CCn1nc(CC2CC2)c(O)c(C2=NS(=O)(=O)c3cc(NS(C)(=O)=O)ccc3N2)c1=O" . Output Papp A→B at 10 µM: 0.49

Input "CC(C)(C)CCn1nc(C2CC2)c(O)c(C2=Nc3ccc(NS(C)(=O)=O)cc3S(=O)(=O)N2)c1=O" . Output Papp A→B at 10 µM: 0.95

Input "CC(C)(C)CCn1nc(CC(C)(C)C)c(O)c(C2=NS(=O)(=O)c3cc(NS(C)(=O)=O)ccc3N2)c1=O" . Output Papp A→B at 10 µM: 0.15

Input "CC(C)=Cc1nn(CCC(C)(C)C)c(=O)c(C2=NS(=O)(=O)c3cc(NS(C)(=O)=O)ccc3N2)c1O" . Output Papp A→B at 10 µM: 1

Input "CC(C)(C)Cc1nn(CCC2CC2)c(=O)c(C2=Nc3ccc(NS(C)(=O)=O)cc3S(=O)(=O)N2)c1O" . Output Papp A→B at 10 µM: 0.7
